Target: DLG1_2, Q12959
Sequence (Q12959 314-412): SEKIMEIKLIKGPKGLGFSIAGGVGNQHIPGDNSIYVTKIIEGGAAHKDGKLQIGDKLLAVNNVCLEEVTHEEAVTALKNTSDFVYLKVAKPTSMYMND
Assay: holdup assay
Design: key: below the threshold = too weak to quantify, mostly under pKd 3.1 to 4
Settings: plain residues with an end cap or a label only (N-terminal biotin on a linker: ado-ado)
Reported pKd by item:

| binder | pKd |
| --- | --- |
| QRPYRRGSEI [KCNJ18, B7U540] | 3.51 |
| NVYGIESVKI [GRIA2, P42262] | 3.96 |
| TISFTQTSQF [SLC1A1, P43005] | 3.83 |
| ARESQKVSHV [FAM110B, Q8TC76] | 4.68 |
| RQKEVRESKC [SCN8A, Q9UQD0] | 3.55 |
| AAVENKVTDL [PLXNB1, O43157] | 4.45 |
| PSHPRLQTHV [KIRREL2, Q6UWL6] | 4.65 |
